Please respond with reported % Cell Viability of 22rv1 at 0.5 μM for every item in the list.
- System: 22rv1
- protocolDetails: Effect on 22rv1 cell viability
- experimentalSetup: 0.5 μM

Problem: For O=C(NCCc1ccccc1)c1cccc(-c2cc(O)c3ncccc3c2)c1 [Compound 14b] , write its % Cell Viability of 22rv1 at 0.5 μM.
Solution: 83.7% (B-3,

Problem: Give the measured % Cell Viability of 22rv1 at 0.5 μM for O=C(NCc1ccc(C(=O)NC2CCCC2)cc1)c1cccc(-c2cc(O)c3ncccc3c2)c1 [Compound 17i]
Solution: 29.8%

Problem: Output % Cell Viability of 22rv1 at 0.5 μM of O=C(NCc1ccccc1)c1cccc(-c2cc(O)c3ncccc3c2)c1 [Compound 14c]
Solution: 79.3% (B-3,
